All figures here come from the supplement of paper PMC9942255.

- Test system: Bacillus subtilis DB104 (SP-AmyQ fusion secretion)
- methodDescription: AmyQ secretion efficiency, weighted average sort bin (1 = best secretion, 10 = worst) (bin number (weighted average, 1-10)); higher = lower secretion efficiency
I'd appreciate it if you could label each record using AmyQ secretion efficiency and these ranges: lower band: < 4; central band: ≥ 4 and < 6; upper band: ≥ 6

Take a look at these entries with their results.
[[record]]
biopolymersequence = "MLKKKWVGLLAGCLAAGGFSYNAFATEN"
classassignment = "central band"

[[record]]
biopolymersequence = "MRPVFPLILSAVLFLSCFKKKRRTRASASKR"
classassignment = "upper band"

[[record]]
biopolymersequence = "MKKQIITATTAVVLGSTLFAGASSAQSI"
classassignment = "lower band"

[[record]]
biopolymersequence = "MKKKQVMLALTAAAGLGLTALAIVSSFVHSAPAAKAAPL"
classassignment = "central band"

[[record]]
biopolymersequence = "MKLAKRVSALTPSTTLAIEAKAKEL"
classassignment = "upper band"

[[record]]
biopolymersequence = "MRKKHQTISLLIIFLLASAVLAKPIEAHTV"
classassignment = "lower band"


Input: Quick check: band for "MKLAKRVSALTPSTTLAIKKKKRAKAKEL"
Output: upper band

---

- Tested on: Bacillus subtilis DB104 (SP-AmyQ fusion secretion)
- methodDescription: AmyQ secretion efficiency, weighted average sort bin (1 = best secretion, 10 = worst) (bin number (weighted average, 1-10)); higher = lower secretion efficiency
experimentalEndpoint: AmyQ secretion efficiency
Answer with a number only.

Worked cases, answers included:
[[record]]
biopolymersequence = "MKKWLIIAVSLAIMYTKGEAKAAGM"
measured = 2.92

[[record]]
biopolymersequence = "MKRIRIPMTLALGAALTIAPLSFASSEEN"
measured = 4.71

[[record]]
biopolymersequence = "MKIRKILLSSALSFGMLISAVPALAAEE"
measured = 2.95

[[record]]
biopolymersequence = "MSKWMITIAMLILAGIALFVFISPLKSHKT"
measured = 5.71


Input: State its AmyQ secretion efficiency on Bacillus subtilis DB104 (SP-AmyQ fusion secretion): "MAIIIAIIAAVIVIAALITFEDDEDDDRNASPG"
Output: 6.7

Input: State its AmyQ secretion efficiency on Bacillus subtilis DB104 (SP-AmyQ fusion secretion): "MKKWLIIAVSLAIAIVLFMYTKGETKAAGM"
Output: 3.24

Input: State its AmyQ secretion efficiency on Bacillus subtilis DB104 (SP-AmyQ fusion secretion): "MAIIIAIIAAVIVIAALITFNVRNPSPG"
Output: 7.75

Input: State its AmyQ secretion efficiency on Bacillus subtilis DB104 (SP-AmyQ fusion secretion): "MKKVLMAFIICLSLILSVLAAPPSGAKVESV"
Output: 4.98

Input: State its AmyQ secretion efficiency on Bacillus subtilis DB104 (SP-AmyQ fusion secretion): "MKLAKRVSALTPSTTLAITTKAKEL"
Output: 6.55

Input: State its AmyQ secretion efficiency on Bacillus subtilis DB104 (SP-AmyQ fusion secretion): "MKKWLIIAVSLAIAIVLFRRKKGRAKAAGM"
Output: 5.92

Input: State its AmyQ secretion efficiency on Bacillus subtilis DB104 (SP-AmyQ fusion secretion): "MKRRRRKIWTIILGALLVCCIAVAYTLTKSQAGASSS"
Output: 5.49

Input: State its AmyQ secretion efficiency on Bacillus subtilis DB104 (SP-AmyQ fusion secretion): "MKRTWNRQRKVCLTALLSVLLVAGSVPFHAEAKKP"
Output: 2.09

Input: State its AmyQ secretion efficiency on Bacillus subtilis DB104 (SP-AmyQ fusion secretion): "MLCVMMLLFSAIASFPVSAQAKKK"
Output: 7.53

---

- Test system: Bacillus subtilis DB104 (SP-AmyQ fusion secretion)
- methodDescription: AmyQ secretion efficiency, weighted average sort bin (1 = best secretion, 10 = worst) (bin number (weighted average, 1-10)); higher = lower secretion efficiency
// false strictly below 7 in AmyQ secretion efficiency; true otherwise

Take a look at these entries with their results.
[[record]]
biopolymersequence = "MKRIRIPMKLALGAALTIAPLSFASAEEN"
classassignment = "false"

[[record]]
biopolymersequence = "MKRTWNVCLTALLSVLLVAGSVPSHAEAKKP"
classassignment = "false"

[[record]]
biopolymersequence = "MFNRLFRVCFLAALIMAFEEEDDEVYAQKP"
classassignment = "false"

[[record]]
biopolymersequence = "MKSKGSIMACLILFSFTITTFINTETFSAFSN"
classassignment = "true"


Field: next sequence
Input: Hi team, for "MKNMSCKLVVSVTLFFSFLTIGPLAPVGVSPVAHAQNS" , is the recorded AmyQ secretion efficiency at or above 7?
Output: false

---

- Test system: Bacillus subtilis DB104 (SP-AmyQ fusion secretion)
- methodDescription: AmyQ secretion efficiency, weighted average sort bin (1 = best secretion, 10 = worst) (bin number (weighted average, 1-10)); higher = lower secretion efficiency
experimentalEndpoint: AmyQ secretion efficiency
Answer with a number only.

Input: # input sequence: "MKQFAITLSVLCALILLVPTLLVIPRRKKRHKKEAGASV" ; wanted: its AmyQ secretion efficiency
Output: 5.51

Input: # input sequence: "MLCVMMLLFSAIASFPVSLQAKDQ" ; wanted: its AmyQ secretion efficiency
Output: 5.46

Input: # input sequence: "MRKNRILALFVLSLGLLFSFMVTPVSAASK" ; wanted: its AmyQ secretion efficiency
Output: 1.99

Input: # input sequence: "MKRIRIPMTLKKGAALTIAPLSFASAEEN" ; wanted: its AmyQ secretion efficiency
Output: 7.82

Input: # input sequence: "MRSKKLWISLLFALTLIFAMAFIAMIAQAAGK" ; wanted: its AmyQ secretion efficiency
Output: 2

Input: # input sequence: "MKWMCSICCAAVLLAGGAAQAAAD" ; wanted: its AmyQ secretion efficiency
Output: 4.17

Input: # input sequence: "MKKKLAAGLTASAIVGTTLVVTPTAAEAATI" ; wanted: its AmyQ secretion efficiency
Output: 2.99

Input: # input sequence: "MKKSQYFIVFICFFVLFSVHPIAQAAADS" ; wanted: its AmyQ secretion efficiency
Output: 4.87

Input: # input sequence: "MLKKKWMVGLLAGCLAAGGFSYNCFATEN" ; wanted: its AmyQ secretion efficiency
Output: 3.91

Input: # input sequence: "MPIKKKVMMCLAVTLVFGSMSFPTLTNSGGDED" ; wanted: its AmyQ secretion efficiency
Output: 6.4

Input: # input sequence: "MGLGKKLKKKKAASFMSLSISLPGVQAAEG" ; wanted: its AmyQ secretion efficiency
Output: 7.92

Input: # input sequence: "MRFTKTRGQRQVLGLAAVFPLTAQAEKA" ; wanted: its AmyQ secretion efficiency
Output: 7.51

Input: # input sequence: "MKNMSCKLVVSVTLFFSFLTIGPLAHGQNS" ; wanted: its AmyQ secretion efficiency
Output: 2

Input: # input sequence: "MSKTGRYTKAVIVIAALITFNVRNASPG" ; wanted: its AmyQ secretion efficiency
Output: 4.05

Input: # input sequence: "MKQIMIFLTSFMLLAMTGQTCLAKDV" ; wanted: its AmyQ secretion efficiency
Output: 3.75

Input: # input sequence: "MGMKKKLSLGVASAALGLALVGGGTWKAFN" ; wanted: its AmyQ secretion efficiency
Output: 5.21

Input: # input sequence: "MRSYIKVLTMCFLGLILFVPTALCDNS" ; wanted: its AmyQ secretion efficiency
Output: 3.89

Input: # input sequence: "MKKGQYRRGSLGLVFGFSYGAGHVAEAKTK" ; wanted: its AmyQ secretion efficiency
Output: 7.9

Input: # input sequence: "MPRKKKQKYRCLAVTLVFGSMSFPTLTNSGGFKE" ; wanted: its AmyQ secretion efficiency
Output: 6.94

---

- Test system: Bacillus subtilis DB104 (SP-AmyQ fusion secretion)
- methodDescription: AmyQ secretion efficiency, weighted average sort bin (1 = best secretion, 10 = worst) (bin number (weighted average, 1-10)); higher = lower secretion efficiency
# AmyQ secretion efficiency values compiled below
Answer with a number only.

[[record]]
biopolymersequence = "MLKKKWMVGLLAGCLAAGTTSAAFTFFTGFSYNAFATEN"
measured = 7.04


Input: State its AmyQ secretion efficiency on Bacillus subtilis DB104 (SP-AmyQ fusion secretion): "MKRLLSTLLIGIMLLTFAPSAFWKQD"
Output: 6.93

Input: State its AmyQ secretion efficiency on Bacillus subtilis DB104 (SP-AmyQ fusion secretion): "MRMLWRSLALCGLALTLAPCPQAAEP"
Output: 6.73

Input: State its AmyQ secretion efficiency on Bacillus subtilis DB104 (SP-AmyQ fusion secretion): "MGMKKKLSLGVASAALGLALVGGGTWCAFN"
Output: 4.28

Input: State its AmyQ secretion efficiency on Bacillus subtilis DB104 (SP-AmyQ fusion secretion): "MRPVFPLILSAVLFLSCFFGARQTENSASKR"
Output: 6.14

Input: State its AmyQ secretion efficiency on Bacillus subtilis DB104 (SP-AmyQ fusion secretion): "MMKRSSLIMMTGLLFGLTSPAFAAEK"
Output: 3.11

Input: State its AmyQ secretion efficiency on Bacillus subtilis DB104 (SP-AmyQ fusion secretion): "MKKKQVMLALTAAAGLGLTALHSAPAVKAAPL"
Output: 1.99
